Reference source for all entries: ChEMBL document CHEMBL1961873

SYSTEM UNDER TEST: Hepatocyte growth factor receptor (Homo sapiens);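 note: each value is an averaged inhibition figure for MET, taken as the mean across measurements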
APPLIED CONDITIONS: at 1 µM
MEASURE: inhibition (%)
Expressed in %, but write only the number.

Worked examples follow.
| SMILES NOTATION | inhibition, % |
| --- | --- |
| CCn1c(-c2nonc2N)nc2ccc(F)cc21 | 9.65 |
| Cc1ccc2c(c1)/C(=N/Nc1ccc(S(N)(=O)=O)cc1)C(=O)N2 | 4.08 |
| Nc1nccc(-c2c(-c3ccc(F)cc3)nn3cc(C(F)(F)F)ccc23)n1 | 0.01 |
| Cc1ccc(O)cc1Nc1ccnc2ccc(S(C)(=O)=O)cc12 | -0.38 |
| COc1cc2ncn(-c3cc(OCc4ccccc4S(C)(=O)=O)c(C#N)s3)c2cc1OC | 15.6 |

Problem: Can you look up the measured inhibition of `CN(C)C(=O)O[C@H]1CN[C@H](C#Cc2cc3ncnc(Nc4ccc(OCc5cccc(F)c5)c(Cl)c4)c3s2)C1` for me?
Solution: 6.26

====

inhibition by entry:
SYSTEM UNDER TEST: Serine/threonine-protein kinase Nek6 (Homo sapiens) (UniProt Q9HC98);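 note: values are the mean percent inhibition of NEK6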
Sequence (Q9HC98 whole entry): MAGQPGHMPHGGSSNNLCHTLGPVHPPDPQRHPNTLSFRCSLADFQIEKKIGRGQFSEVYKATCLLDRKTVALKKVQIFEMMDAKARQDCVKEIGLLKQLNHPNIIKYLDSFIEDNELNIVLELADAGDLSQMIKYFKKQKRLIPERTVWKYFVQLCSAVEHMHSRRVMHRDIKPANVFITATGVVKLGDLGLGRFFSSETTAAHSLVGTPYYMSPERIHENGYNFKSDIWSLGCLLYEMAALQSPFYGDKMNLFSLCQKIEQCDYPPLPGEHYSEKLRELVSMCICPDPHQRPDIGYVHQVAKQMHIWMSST
APPLIED CONDITIONS: at 0.1 µM
Give the value in % but do not write % after it.

The cases that follow already have their inhibition on record.
| SMILES NOTATION | NUMERIC RESULT |
| --- | --- |
| NS(=O)(=O)c1ccc(N/N=C2\C(=O)Nc3ccc(Cl)cc32)cc1 | 4.79 |
| CCS(=O)(=O)c1ccc(OC)c(Nc2nccc(N(C)c3ccc4c(C)n[nH]c4c3)n2)c1 | 2.07 |
| COc1cc2ncn(-c3cc(OCc4ccccc4S(C)(=O)=O)c(C#N)s3)c2cc1OC | 3.33 |
| NC(=O)c1sc(-n2cnc3ccccc32)cc1OCc1ccccc1Br | -0.26 |
| COc1cccc(-n2ncc3c(N/N=C/c4ccc(C)cc4)ncnc32)c1 | 3.25 |

Problem: Query (compound): `ON=C1CCc2cc(-c3nc(C4CCNCC4)[nH]c3-c3ccncc3)ccc21` ; field requested: inhibition
Solution: -0.82

Problem: # query: inhibition of entry `COc1cc(/C=N/Nc2ncnc3c2cnn3C(C)C)ccc1O`
Solution: 2.57

Problem: Returns the measured inhibition for the input compound. Input: `CC(C)c1ccc(Nc2nccc(-c3cnn4ncccc34)n2)cc1`
Solution: 1.7

Problem: I would be grateful if you could share the reported inhibition for `c1ccc(Nc2ncc(-c3ccccc3)o2)cc1` .
Solution: 1.04

Problem: So what does the record say about inhibition for `O=C(Nc1ccc(Oc2ccc3[nH]c(NC(=O)c4ccco4)nc3c2)cc1)Nc1cc(C(F)(F)F)ccc1F` ?
Solution: -0.01

====

List of inhibition values.
SYSTEM UNDER TEST: Phosphorylase b kinase gamma catalytic chain, skeletal muscle/heart isoform (Homo sapiens)
APPLIED CONDITIONS: at 0.1 µM
Only the number, expressed in %, is required.

These recorded examples may help you get a feel for the data.
| SMILES NOTATION | SYSTEM UNDER TEST | inhibition (%) |
| --- | --- | --- |
| COc1cccc(-n2ncc3c(N/N=C/c4ccc(S(C)(=O)=O)cc4)ncnc32)c1 | Phosphorylase b kinase gamma catalytic chain, skeletal muscle/heart isoform (Homo sapiens) | 2.42 |
| O=C(Nc1ccc(Oc2ccc3[nH]c(NC(=O)c4ccco4)nc3c2)cc1)Nc1cc(C(F)(F)F)ccc1F | Phosphorylase b kinase gamma catalytic chain, skeletal muscle/heart isoform (Homo sapiens) | 0.41 |
| Nc1nccc(-c2c(-c3ccc(F)cc3)nn3cc(C(F)(F)F)ccc23)n1 | Phosphorylase b kinase gamma catalytic chain, skeletal muscle/heart isoform (Homo sapiens) | 3.63 |

Problem: What value of inhibition on Phosphorylase b kinase gamma catalytic chain, skeletal muscle/heart isoform (Homo sapiens) does `[O-][S+]1CCN(Cc2ccc(-c3ccc4ncnc(Nc5ccc(OCc6ccccc6)c(Cl)c5)c4c3)o2)CC1` have?
Solution: 3.63

Problem: Request - read-out inhibition | tested on Phosphorylase b kinase gamma catalytic chain, skeletal muscle/heart isoform (Homo sapiens) | compound `Cc1ccc2c(c1)/C(=N/Nc1ccc(S(N)(=O)=O)cc1)C(=O)N2`
Solution: 1.32

Problem: # returns recorded inhibition (system: Phosphorylase b kinase gamma catalytic chain, skeletal muscle/heart isoform (Homo sapiens)) for `NS(=O)(=O)c1ccc(-c2cc3ccncc3cc2OCc2ccccc2)cc1`
Solution: 3.43

Problem: Notebook entry, Phosphorylase b kinase gamma catalytic chain, skeletal muscle/heart isoform (Homo sapiens) assay: inhibition of `CN1CCN(C(=O)c2ccc(NC(=O)Nc3ccc(N(C)c4ccnc(Nc5ccc(CS(C)(=O)=O)cc5)n4)cc3)cc2)CC1` = ?
Solution: -1.64

Problem: Query inhibition on Phosphorylase b kinase gamma catalytic chain, skeletal muscle/heart isoform (Homo sapiens) for `O=C1Nc2ccccc2/C1=C/Nc1ccc2[nH]c(=O)[nH]c2c1`
Solution: 10.5

Problem: API: value(readout= inhibition, system= Phosphorylase b kinase gamma catalytic chain, skeletal muscle/heart isoform (Homo sapiens), query= `NS(=O)(=O)c1ccc(N/N=C2\C(=O)Nc3ccc(Cl)cc32)cc1` );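 note: values are averaged percent inhibition of PHKG1 kinase activity, from the GSK PKIS inhibitor-set screen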
Solution: 0.25
